Answer each item with its documented log10(CH4 permeability).
Heads up, the numbers here are log10 of CH4 permeability in Barrer units.

Example entries and their recorded answers appear below.
compound	log10(CH4 permeability)
*c1c(C)cc(Cc2cc(C)c(N3C(=O)c4ccc(C(c5ccc6c(c5)C(=O)N(*)C6=O)(C(F)(F)F)C(F)(F)F)cc4C3=O)c(C)c2)cc1C (repeat unit)	0.16
*Oc1c(C)cc(*)c(C(=O)c2ccc(Br)cc2)c1C (repeat unit)	0.05
*Oc1ccc(C(C)(C)c2ccc(OC(=O)c3cccc(C(*)=O)c3)c(C)c2)cc1C (repeat unit)	-1.34
*C(=C(*)c1ccc2c(c1)C1(CC1)c1ccccc1-2)c1ccccc1 (repeat unit)	2.91
*CC(C)O* (repeat unit)	1.53

Would you mind giving log10(CH4 permeability) for every compound in the list below?
1. *Nc1ccc(Oc2ccc(Oc3ccc(NC(=O)CN4C(=O)c5ccc(C(*)=O)cc5C4=O)cc3)cc2)cc1 (repeat unit)
2. *c1ccc(-c2ccc(N3C(=O)c4ccc(-c5ccc6c(c5)C(=O)N(*)C6=O)cc4C3=O)c(O)c2)cc1O (repeat unit)
3. *c1ccc(Oc2ccc(N3C(=O)c4ccc(C(c5ccc6c(c5)C(=O)N(*)C6=O)(C(F)(F)F)C(F)(F)F)cc4C3=O)cc2)cc1 (repeat unit)

-1.82
-3.39
-0.39

====

parameter: N2 permeability (Barrer)
Answers are plain numbers, in Barrer.

Example entries and their recorded answers appear below.
compound	unit.abbrev	N2 permeability
*C(C)=C(*)CCC(C)C (repeat unit)	Barrer	51
*CN1CN(*)c2cc3c(cc21)C1(C)CCC3(C)c2cc(*)c(*)cc21 (repeat unit)	Barrer	187
*C(=O)c1ccc([Si](C)(C)c2ccc(C(*)=O)cc2)cc1 (repeat unit)	Barrer	1.37
*c1c(C)c(C)c(N2C(=O)c3ccc(Oc4cc(C)ccc4Oc4ccc5c(c4)C(=O)N(*)C5=O)cc3C2=O)c(C)c1C (repeat unit)	Barrer	0.59
*Oc1cc2c(cc1O*)C1(CC2(C)C)CC(C)(C)c2cc3oc4cc5c(=O)n(-c6c(C)c(C)c(N7C(=O)c8cc(*)c(*)cc8C7=O)c(C)c6C)c(=O)c5cc4oc3cc21 (repeat unit)	Barrer	23
*c1c(C)c(C)c(N2C(=O)c3ccc(Oc4c(C)ccc(C)c4Oc4ccc5c(c4)C(=O)N(*)C5=O)cc3C2=O)c(C)c1C (repeat unit)	Barrer	2.05

Would you mind giving N2 permeability for every compound in the list below?
1. *Oc1c(Br)cc(C(c2cc(Br)c(OC(*)=O)c(Br)c2)(C(F)(F)F)C(F)(F)F)cc1Br (repeat unit)
2. *Oc1ccc(C(c2ccc(Oc3c(F)c(F)c(COC(C4CCCC(C(OCc5c(F)c(F)c(*)c(F)c5F)(C(F)(F)F)C(F)(F)F)C4)(C(F)(F)F)C(F)(F)F)c(F)c3F)cc2)(C(F)(F)F)C(F)(F)F)cc1 (repeat unit)
3. *c1ccc(C(c2ccc(-c3nc4cc(C(c5ccc6oc(*)nc6c5)(C(F)(F)F)C(F)(F)F)ccc4o3)cc2)(C(F)(F)F)C(F)(F)F)cc1 (repeat unit)
4. *C(C)=C(*)CCCCCC (repeat unit)
5. *C1C(*)C2CC1C1CC([Si](C)(C)C)C21 (repeat unit)
6. *Oc1ccc(S(=O)(=O)c2ccc(Oc3ccc(C(c4ccc(*)cc4)(C(F)(F)F)C(F)(F)F)cc3)cc2)cc1 (repeat unit)
7. *c1ccc(Oc2ccc(C(c3ccc(Oc4ccc(-n5c(=O)c6cc7c(=O)n(*)c(=O)c7cc6c5=O)cc4C(F)(F)F)cc3)(C(F)(F)F)C(F)(F)F)cc2)c(C(F)(F)F)c1 (repeat unit)

[1.8, 0.9, 300, 23, 390, 0.431, 1.5]
